# DETAILS: buffer; pH 7.4; 200.0 µM
MEASUREMENT NAME: solubility kinetic

Here are 6 compounds together with their reported answers.
CC(C)CNC(C)C(=O)Nc1ccc(S(N)(=O)=O)cc1 (configuration not stated)	> 44.9 µg/mL
Cc1cccc(NC(=O)Cc2c(F)cccc2Cl)n1	> 41.8 µg/mL
O=C(Nc1ccc(F)c(Cl)c1)c1ccc2c(c1)OCO2	< 0.6 µg/mL
O=C(NCc1cccnc1)Nc1cccc(C(F)(F)F)c1	> 44.3 µg/mL
NC(=NCc1ccco1)NC(=O)c1ccccc1	> 36.5 µg/mL
CCc1ccc(N2CN(Cc3cccnc3)CNC2=S)cc1	> 46.9 µg/mL

// below: solubility kinetic requested for another compound
## Task # return recorded solubility kinetic for input "CC12CC3CC(C1)CC(C(=O)NNC(=O)c1ccncc1)(C3)C2"
## Result > 47 µg/mL

----------
Listed here: items and their measured solubility kinetic.
# DETAILS: buffer; pH 7.4; 200.0 µM

Here are 7 molecules together with their reported answers.
CC(=O)c1c(Cl)nc2cccc3c2c1-c1ccccc1C3=O	< 0.0007 mg/mL
COc1ccccc1C(c1c(O)nc(SC)[nH]c1=O)c1c(O)nc(SC)[nH]c1=O	> 0.0652 mg/mL
COc1ccc(CNC(=O)c2cc(=O)c3cc(C)ccc3o2)cc1	< 0.0007 mg/mL
O=C(COC(=O)c1ccccc1F)NC(=O)NC1CCCC1	> 0.0462 mg/mL
Cn1c(SCC(=O)NC2CCCCC2)nnc1-c1ccccc1F	> 0.0523 mg/mL
O=C(Cn1c(CO)nc2ccccc21)NC1CCCCCC1	> 0.0452 mg/mL
O=C(c1ccccc1)C1CCN(C(=O)c2c(F)cccc2F)CC1	> 0.0494 mg/mL

// below: solubility kinetic requested for another molecule
## Task # return recorded solubility kinetic for input "C=CCNC(=O)COC(=O)COc1ccc(Cl)cc1"
## Result > 0.0426 mg/mL

----------
Listed here: items and their measured solubility kinetic.
# DETAILS: buffer; pH 7.4; 200.0 µM

Here are 3 compounds together with their reported answers.
O=C(O)CC(NC(=O)C1CCCCC1)c1cc([N+](=O)[O-])ccc1Cl (centres undefined)	> 53.2 µg/mL
O=Cc1cn(CC(O)CN2CCCCC2)c2ccccc12 (centres undefined)	> 43 µg/mL
CCOC(=O)c1c[nH]c(=S)n1C	> 27.9 µg/mL

// below: solubility kinetic requested for another compound
## Task # return recorded solubility kinetic for input COc1ccc(C)cc1NC(=O)C(C)N1CCOCC1.Cl (centres undefined)
## Result > 47.2 µg/mL

----------
Listed here: items and their measured log10 of solubility kinetic.
# DETAILS: buffer; pH 7.4; 200.0 µM
Hey, these are logged values: log10 of solubility kinetic, µg/mL being the unit before logging.

Here are 4 molecules together with their reported answers.
c1ccc(Nc2cccc3ccccc23)cc1	0.18
CSc1ncc(C(=O)Nc2ccccc2Cl)c(C)n1	1.60
CSc1ccccc1NC(=O)Nc1cccc(Cl)c1C	-0.30
Cc1[nH]c2ccccc2c1C(=O)C(C)OC(=O)c1ccc(Cl)nc1 (stereo not drawn)	1.42

## Task # return recorded log10 of solubility kinetic for input "CCOC(=O)C1CCN(C(=O)CC2(CC(=O)O)CCCC2)CC1"
## Result 1.66

## Task # return recorded log10 of solubility kinetic for input CCCOC(=O)C1=C(C)NC(=O)NC1c1ccc(Br)s1 (stereo not drawn)
## Result 0.49

## Task # return recorded log10 of solubility kinetic for input "O=C(CN1CCOCC1)Nc1nc2ccc(Cl)cc2s1"
## Result 1.66

## Task # return recorded log10 of solubility kinetic for input "CCOC(=O)CNC(=O)CSc1nc(-c2ccc(C)cc2)ns1"
## Result 1.05

## Task # return recorded log10 of solubility kinetic for input CC(C#N)(Cc1ccccc1)Nc1ccccc1 (stereo not drawn)
## Result 1.27

## Task # return recorded log10 of solubility kinetic for input "NC(=O)c1ccc(NC(=O)COC(=O)c2cc3c(s2)CCC3)cc1"
## Result 0.93

## Task # return recorded log10 of solubility kinetic for input "CN1C(=O)CSC1=Nc1cccc(Cl)c1"
## Result 1.53

## Task # return recorded log10 of solubility kinetic for input "CCCCNC(=S)N1CCN(c2ccc(C(C)=O)cc2)CC1"
## Result 0.90
